System: T cell activation from 0401(DR4) chimeric MHCII-mice
Experiment: In vivo inhibition of T cell activation by co-immunisation, DR4 mice immunised with HEL
Set-up: species or system mouse
Settings: DR4 mice co-immunised with HEL plus compound; mean % inhibition from the control over 3 concentrations of antigen (6.7, 20 and 60 ug)
Square brackets hold non-standard residues; d marks the D form. Peptide text beside a SMILES is read from it. * marks the point of attachment. Gly(1-amidinopiperidin-4-yl) = N=C(N)N1CCC([C@H](N)C(=O)O)CC1; Tic = O=C(O)[C@@H]1Cc2ccccc2CN1; Cha = N[C@@H](CC1CCCCC1)C(=O)O; NHPhenethyl = c1ccc(CCN*)cc1; NMe(benzyl) = CN(Cc1ccccc1)*; Nle = CCCC[C@H](N)C(=O)O; X2 = OCCOCCN(Cc1ccccc1)*; NHBn = c1ccc(CN*)cc1
Parameter: % Reduction of response to HEL (%)
Answers are plain numbers, in %.

- Compound: "CCCC[C@H](NC(=O)[C@@H]1Cc2ccccc2CN1C(=O)[C@@H](NC(=O)[C@H](CC1CCCCC1)NC(C)=O)C1CCN(C(=N)N)CC1)C(=O)NCCc1ccccc1 [Compound P69, Ac-Cha-Gpg-Tic-Nle-N(H)CH2CH2Ph] (Ac-[Cha][Gly(1-amidinopiperidin-4-yl)][Tic][Nle]-NHPhenethyl)"
  Value Measured: 59
- Compound: "CCCC[C@H](NC(=O)[C@@H]1Cc2ccccc2CN1C(=O)[C@@H](NC(=O)[C@H](CC1CCCCC1)NC(C)=O)C1CCN(C(=N)N)CC1)C(=O)NCc1ccccc1 [Compound P68, Ac-Cha-Gpg-Tic-Nle-N(H)Bn] (Ac-[Cha][Gly(1-amidinopiperidin-4-yl)][Tic][Nle]-NHBn)"
  Value Measured: "−3.2"
- Compound: "CCCC[C@H](NC(=O)[C@@H]1Cc2ccccc2CN1C(=O)[C@@H](NC(=O)[C@H](CC1CCCCC1)NC(C)=O)C1CCN(C(=N)N)CC1)C(=O)N(CCOCCO)Cc1ccccc1 [Compound P101, Ac-Cha-Gpg-Tic-Nle-N(Bn)CH2CH2OCH2CH2OH] (Ac-[Cha][Gly(1-amidinopiperidin-4-yl)][Tic][Nle]-X2)"
  Value Measured: 49.7

Shifting focus to the compound that follows.
Q: Give the measured % Reduction of response to HEL of CCCC[C@H](NC(=O)[C@@H]1Cc2ccccc2CN1C(=O)[C@@H](NC(=O)[C@H](CC1CCCCC1)NC(C)=O)C1CCN(C(=N)N)CC1)C(=O)N(C)Cc1ccccc1 [Compound P74, Ac-Cha-Gpg-Tic-Nle-N(Me)Bn] (Ac-[Cha][Gly(1-amidinopiperidin-4-yl)][Tic][Nle]-{NMe(benzyl)}) .
Ans: 51.6

* * *

Consider the following molecules; for each one, report its pIC50.
Biological target: Priess (DR4Dw4: DRA1*0101 DRB1*0401) cells (Homo sapiens, UniProt P01903+P01911, A100K/A169T/F76Y/I96L/K127E/L162R/M171V/N62H/P40V/Q125Y/R42H/S133A/S149N/S66Y/V115G/V209L/W38E)
Construct: MHC II Proteins Expressed on PRIESS and LG2 Cells; endogenous in cells; host or cells: Priess cells
Experiment: Competitive binding to MHC II proteins expressed on Priess cells
Type: cell-based
Numbered stars: 1 amine (or outer) side, 2 acyl side, 3 side chain; on linkers, the order of the positions; unused ones are H or OH. Square brackets hold non-standard residues; d marks the D form. Peptide text beside a SMILES is read from it. * marks the point of attachment. ξ: configuration not given here. Gly(1-amidinopiperidin-4-yl) = N=C(N)N1CCC([C@H](N)C(=O)O)CC1; X1 = CC(C)c1oc([C@H](CO)N[*:1])nc1C(=O)[*:2]; Pro(3R-Ph) = O=C(O)[C@H]1NCC[C@@H]1c1ccccc1; Met(O) = CS(=O)CC[C@H](N)C(=O)O; Tic = O=C(O)[C@@H]1Cc2ccccc2CN1; Cha = N[C@@H](CC1CCCCC1)C(=O)O; ξDisc = O=C(O)C1NCc2ccccc21; Nle = CCCC[C@H](N)C(=O)O; NHBn = c1ccc(CN*)cc1; X3 = OCCOCCN*
Give bare numbers, as −log10 of the molar value.

- Molecule: "CSCC[C@H](NC(=O)C1c2ccccc2CN1C(=O)[C@H](CCCNC(=N)N)NC(=O)[C@H](CC1CCCCC1)NC(C)=O)C(=O)N1CC[C@H](c2ccccc2)[C@H]1C(=O)N[C@@H](CO)c1nc(C(=O)N(C)C)c(C(C)C)o1 (stereo partly drawn) [Compound P40-1] (Ac-[Cha]R[ξDisc]M[Pro(3R-Ph)][X1]-NMe2)"
  Parameter: "pIC50"
  Value Measured: 5.52

Below are 8 molecules. Give each one its pIC50.
1. CCCC[C@H](NC(=O)C1c2ccccc2CN1C(=O)[C@@H](NC(=O)[C@H](CC1CCCCC1)NC(C)=O)C1CCN(C(=N)N)CC1)C(=O)N1CC[C@H](c2ccccc2)[C@H]1C(=O)N[C@@H](CO)c1nc(C(=O)N(C)C)c(C(C)C)o1 (stereo partly drawn) [Compound P81-1] (Ac-[Cha][Gly(1-amidinopiperidin-4-yl)][ξDisc][Nle][Pro(3R-Ph)][X1]-NMe2)
2. CSCC[C@H](NC(=O)[C@@H]1Cc2ccccc2CN1C(=O)[C@@H](NC(=O)[C@H](CC1CCCCC1)NC(C)=O)C1CCN(C(=N)N)CC1)C(=O)N1CC[C@H](c2ccccc2)[C@H]1C(=O)N[C@@H](CO)c1nc(C(=O)N(C)C)c(C(C)C)o1 [Compound P60] (Ac-[Cha][Gly(1-amidinopiperidin-4-yl)][Tic]M[Pro(3R-Ph)][X1]-NMe2)
3. CSCC[C@H](NC(=O)C1c2ccccc2CN1C(=O)[C@@H](NC(=O)[C@H](CC1CCCCC1)NC(C)=O)C1CCN(C(=N)N)CC1)C(N)=O (stereo partly drawn) [Compound P66-1, Ac-Cha-Gpg-Disc-Met-NH2] (Ac-[Cha][Gly(1-amidinopiperidin-4-yl)][ξDisc]M-NH2)
4. CSCC[C@H](NC(=O)C1c2ccccc2CN1C(=O)[C@@H](NC(=O)[C@H](CC1CCCCC1)NC(C)=O)C1CCN(C(=N)N)CC1)C(=O)N1CC[C@H](c2ccccc2)[C@H]1C(=O)N[C@@H](CO)c1nc(C(=O)N(C)C)c(C(C)C)o1 (stereo partly drawn) [Compound P41-1] (Ac-[Cha][Gly(1-amidinopiperidin-4-yl)][ξDisc]M[Pro(3R-Ph)][X1]-NMe2)
5. CCCC[C@H](NC(=O)[C@@H]1Cc2ccccc2CN1C(=O)[C@@H](NC(=O)[C@H](CC1CCCCC1)NC(C)=O)C1CCN(C(=N)N)CC1)C(=O)NCCOCCO [Compound P70, Ac-Cha-Gpg-Tic-Nle-N(H)CH2CH2OCH2CH2OH] (Ac-[Cha][Gly(1-amidinopiperidin-4-yl)][Tic][Nle]-X3)
6. CC(=O)N[C@@H](CC1CCCCC1)C(=O)N[C@H](C(=O)N1Cc2ccccc2C[C@H]1C(=O)N[C@@H](CC[S+](C)[O-])C(=O)N1CC[C@H](c2ccccc2)[C@H]1C(=O)N[C@@H](CO)c1nc(C(=O)N(C)C)c(C(C)C)o1)C1CCN(C(=N)N)CC1 (stereo partly drawn) [Compound P47] (Ac-[Cha][Gly(1-amidinopiperidin-4-yl)][Tic][Met(O)][Pro(3R-Ph)][X1]-NMe2)
7. CCCC[C@H](NC(=O)[C@@H]1Cc2ccccc2CN1C(=O)[C@@H](NC(=O)[C@H](CC1CCCCC1)NC(C)=O)C1CCN(C(=N)N)CC1)C(=O)N1CC[C@H](c2ccccc2)[C@H]1C(=O)N[C@@H](CO)c1nc(C(=O)N(C)C)c(C(C)C)o1 [Compound P53] (Ac-[Cha][Gly(1-amidinopiperidin-4-yl)][Tic][Nle][Pro(3R-Ph)][X1]-NMe2)
8. CSCC[C@H](NC(=O)[C@@H]1Cc2ccccc2CN1C(=O)[C@H](CCCNC(=N)N)NC(=O)[C@H](CC1CCCCC1)NC(C)=O)C(N)=O [Compound P1, Ac-Cha-Arg-Tic-Met-NH2] (Ac-[Cha]R[Tic]M-NH2)

Ans:
[5.47, 5.68, 5.11, 5.43, 5.07, 5.16, 5.52, 4.96]

Below is a list of molecules. For each, state its recorded pIC50.
1. CCCC[C@H](NC(=O)[C@@H]1Cc2ccccc2CN1C(=O)[C@@H](NC(=O)[C@H](CC1CCCCC1)NC(C)=O)C1CCN(C(=N)N)CC1)C(=O)NCc1ccccc1 [Compound P68, Ac-Cha-Gpg-Tic-Nle-N(H)Bn] (Ac-[Cha][Gly(1-amidinopiperidin-4-yl)][Tic][Nle]-NHBn)
2. CCCC[C@H](NC(=O)C1c2ccccc2CN1C(=O)[C@@H](NC(=O)[C@H](CC1CCCCC1)NC(C)=O)C1CCN(C(=N)N)CC1)C(=O)N(C)Cc1ccccc1 (single isomer, unassigned)

Ans:
[4.92, 5.01]

Data provenance is patent US7629318B2.
